Assign cytotoxicity at 10 µM to each entry below.
ASSAY_DETAILS: Toxicity liver stage against HepG2, at 10uM
Format: cell-based
Parameters: test concentration 10 uM, cell line HepG2-A16-CD81EGFP
EXPERIMENTAL_CONDITIONS: human, HepG2-A16-CD81EGFP cells; read-out: INHIBITION
One number for each entry, in %.

> print(dat)
                                   compound           measure.name  readout.value
1  CCC(Nc1nc(C(F)(F)F)nc2ccccc12)C(=O)O (configuration not stated)  cytotoxicity at 10 µM           3.75

Count: 6. Required value per item: cytotoxicity at 10 µM.
1. O=C(CC1CC1)N[C@@H]1CN(c2ncccn2)C[C@@H]2CCCO[C@@H]21
2. O=C(Cc1cn2ccsc2n1)N1CCOCC(O)(CN2CCCC2)C1 (configuration not stated)
3. CCc1noc(CN2CCC(C(=O)Nc3cnn(CC)c3)CC2)n1
4. CCC(C)(NCC(=O)Nc1ccccc1)c1nc(C)cs1 (configuration not stated)
5. CC(CC#N)N(C)Cc1ccc(F)cc1F (configuration not stated)
6. CCc1cnc(C)nc1NCCNc1nc(C)cc(=O)[nH]1

[9.87, -3.36, 3.43, -8.66, 6.03, -9.01]

====

Assign cytotoxicity at 10 µM to each entry below.
ASSAY_DETAILS: Toxicity liver stage against HepG2, at 10uM
Type: cell-based
Parameters: test concentration 10 uM, cell line HepG2-A16-CD81EGFP
EXPERIMENTAL_CONDITIONS: human, HepG2-A16-CD81EGFP cells; read-out: INHIBITION
One number for each entry, in %.

> print(dat)
                                   compound           measure.name  readout.value
1  CN(Cc1ccc2c(c1)OCO2)C(=O)c1ccn(C)c(=O)c1  cytotoxicity at 10 µM           3.01
2  Cc1nn(C)c(C)c1C1CCCN1Cc1nc(C2CC2)no1 (stereo not drawn)  cytotoxicity at 10 µM          -6.68

Then there is this compound:
Documented cytotoxicity at 10 µM of Cc1cc(C(F)(F)F)nn1CCCNC(=O)C1CCC1 : -12.2

====

ASSAY_DETAILS: Toxicity liver stage against HepG2, at 10uM
Format: cell-based
Set-up: test concentration 10 uM, cell line HepG2-A16-CD81EGFP
EXPERIMENTAL_CONDITIONS: human, HepG2-A16-CD81EGFP cells; read-out: INHIBITION
Assign cytotoxicity at 10 µM to each entry below.
Numbers only, in %.

Consider the following illustrative entries.
> print(dat)
                                   compound           measure.name  readout.value
1  CCN(CC)Cc1ccc(C(=O)N2CCCC2c2cnn(C)c2)o1 (configuration not stated)  cytotoxicity at 10 µM           3.51
2  Cc1cn2c(n1)CCC(NC(=O)COCCOc1ccccc1)C2 (configuration not stated)  cytotoxicity at 10 µM          -4.44
3  COc1cc(C)nc(N2CCN(C(C)c3nc(C4CC4)no3)CC2)n1 (configuration not stated)  cytotoxicity at 10 µM           1.46
4  CN(C)C[C@H]1OC[C@@H]2CN(C(=O)NCc3cccc(F)c3)CC[C@@H]21  cytotoxicity at 10 µM          -2.12
5          Cc1nccn1CC1CCN(C(=O)c2ccccc2)CC1  cytotoxicity at 10 µM          -4.17
6  CC(C)N1[C@H](CN(C)C)C[C@@H]2CN(c3ncc(F)cn3)CC[C@@H]21  cytotoxicity at 10 µM           11.7

Count: 5. Required value per item: cytotoxicity at 10 µM.
1. CCn1nnc(NCc2cc(Cl)cc(Cl)c2OC)n1
2. CCC1CN(Cc2c(O)ccc3oc4c(c23)CCCC4)CCO1 (configuration not stated)
3. O=C(NCC1CCS(=O)(=O)C1)N(Cc1ccccn1)C1CC1 (configuration not stated)
4. CN(C)CCC1CCCCN1Cc1cnn(C)c1C1CC1 (configuration not stated)
5. c1cnn(CC2CCCCN2c2ncnc3ccsc23)c1 (configuration not stated)

1. 13.6
2. 2.03
3. -129
4. 2.84
5. -13.9

Count: 5. Required value per item: cytotoxicity at 10 µM.
1. CC(=O)NC1CCN(C(=O)Nc2cccc(C(F)(F)F)c2)CC1
2. COc1cn(CC(=O)N2CCN(c3ccc(Cl)cc3)CC2)c(C)cc1=O
3. c1cnn(CCNCc2nnc(C3CC3)o2)c1
4. CCc1ccc2nc(C)cc(C(=O)NC3CCC(=O)N(C)C3)c2c1 (configuration not stated)
5. COc1ccc(C(=O)N2CC[C@H](CO)[C@H](O)C2)c(C)c1

1: -6.74; 2: 1.82; 3: -10.5; 4: -5.85; 5: -11.5

Count: 6. Required value per item: cytotoxicity at 10 µM.
1. CN(C)CC1CN(Cc2c(Cl)ccc3cccnc23)CCO1 (configuration not stated)
2. CCn1cc(S(=O)(=O)NCC(OC)c2ccccc2)cn1 (configuration not stated)
3. CCN1CCN(C)C(=O)C12CCN(Cc1cccc(C)c1)CC2
4. CN(C)C(=O)NCc1cc2n(n1)CCCN(CC1CCCNC1)C2 (configuration not stated)
5. Cc1cnn(CCC(=O)N2CCCN(c3ncccc3C#N)CC2)c1
6. Cc1nc2c(C)cccc2cc1C(=O)N1CCC2(CCCNC2)C1 (configuration not stated)

1. 4.2
2. 1.64
3. -2.95
4. -4.07
5. 4.11
6. -10.3
